Measured values drawn from ChEMBL document CHEMBL4011591 for this set.

- PROTOCOL_DESCRIPTION: Plasma concentration in Balb-C mouse at 2 mg/kg, iv administered as bolus dose measured after 6 mins by LC-MS analysis
- Type: ADME, organism-based
QUANTITY_KIND: concentration at 0.1 h

molecule=N#C/N=C(/NCc1cccnc1)NCC12CC3CC(CC(C3)C1)C2 quantity_kind="concentration at 0.1 h" test_value="766 ng/mL"

====

- PROTOCOL_DESCRIPTION: Clearance in Balb-C mouse at 2 mg/kg, iv administered as bolus dose by LC-MS method
- Format: ADME, organism-based
- ASSAY_CONTEXT: in vivo
QUANTITY_KIND: clearance (mL/min/kg)

molecule=N#C/N=C(/NCc1cccnc1)NCC12CC3CC(CC(C3)C1)C2 test_value=117
